# system.tested: EGFR del19/C797S (Homo sapiens, UniProt P00533, C797S/DEL746-750)
# Sequence (P00533 with tags, fused parts or gaps DEL746-750/C797S): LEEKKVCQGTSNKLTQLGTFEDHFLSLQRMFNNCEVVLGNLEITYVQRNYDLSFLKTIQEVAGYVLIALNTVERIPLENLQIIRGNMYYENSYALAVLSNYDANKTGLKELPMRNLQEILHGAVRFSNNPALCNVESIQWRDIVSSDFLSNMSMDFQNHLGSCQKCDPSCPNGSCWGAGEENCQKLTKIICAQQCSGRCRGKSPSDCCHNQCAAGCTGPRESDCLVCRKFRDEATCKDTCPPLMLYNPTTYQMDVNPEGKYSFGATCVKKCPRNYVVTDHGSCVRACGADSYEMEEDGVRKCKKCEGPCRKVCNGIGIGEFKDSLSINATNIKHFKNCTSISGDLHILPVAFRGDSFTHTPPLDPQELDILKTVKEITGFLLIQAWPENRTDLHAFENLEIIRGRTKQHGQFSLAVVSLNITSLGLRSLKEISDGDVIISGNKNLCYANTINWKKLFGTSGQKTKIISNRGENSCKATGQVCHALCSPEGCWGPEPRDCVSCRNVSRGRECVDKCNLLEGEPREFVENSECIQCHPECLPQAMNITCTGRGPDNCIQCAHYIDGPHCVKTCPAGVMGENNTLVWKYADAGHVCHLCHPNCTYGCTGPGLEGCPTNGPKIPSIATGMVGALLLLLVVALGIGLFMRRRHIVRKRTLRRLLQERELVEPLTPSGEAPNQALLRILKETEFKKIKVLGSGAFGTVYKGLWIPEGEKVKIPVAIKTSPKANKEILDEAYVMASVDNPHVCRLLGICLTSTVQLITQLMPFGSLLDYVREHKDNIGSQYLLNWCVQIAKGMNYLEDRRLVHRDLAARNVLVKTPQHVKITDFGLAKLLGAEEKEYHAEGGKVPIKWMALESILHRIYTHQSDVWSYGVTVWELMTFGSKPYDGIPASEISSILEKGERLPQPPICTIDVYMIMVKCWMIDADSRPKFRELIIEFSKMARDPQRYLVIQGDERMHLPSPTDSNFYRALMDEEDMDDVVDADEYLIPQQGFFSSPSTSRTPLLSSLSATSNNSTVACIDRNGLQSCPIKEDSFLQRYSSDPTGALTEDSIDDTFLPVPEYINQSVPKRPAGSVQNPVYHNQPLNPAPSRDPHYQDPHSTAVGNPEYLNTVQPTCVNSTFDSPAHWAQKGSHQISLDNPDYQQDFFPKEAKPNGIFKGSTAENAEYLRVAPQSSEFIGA
# run.description: Biochemical EGFR kinase assay (Lance Ultra TR-FRET), double mutant del19/C797S
# details: IC50 del19/C797S (nM) 100 μM ATP, 100 μM ATP
Each entry below carries its recorded IC50.
Respond numerically; units are nM and should not be typed.

Use these answered entries as a reference point.
sample.smiles | value.measured
Cc1ccc(-c2cnc(Nc3ccnc(-c4cnn(S(=O)(=O)C5CC5)c4)n3)cc2N[C@H]2CC[C@@](C)(O)CC2)nc1 | 0.7
O=S(=O)(C1CC1)n1cc(-c2nccc(Nc3cc(N[C@H]4CC[C@@H](CO)CC4)c(-c4cnc(N5CCC(F)(F)CC5)cn4)cn3)n2)cn1 | 13.1

Below: the item to evaluate.
Exam item: Give IC50 for CN(C)Cc1ccnc(-c2cnc(Nc3ccnc(-c4cnn(S(=O)(=O)C5CC5)c4)n3)cc2N[C@H]2CC[C@@](C)(O)CC2)c1
Marked response: 0.2
